# test_method_notes: in vitro
# run_conditions: human, pH 7.4
readout: hemolysis at 3 h, 300 µg/mL (%)

INSERT INTO results (molecule, unit_of_measure, measured_result) VALUES
  ('CCOCNC1=CC(=O)c2ccccc2C1=O [7b]', '%', 2.7);

* * *

Measured CC50 at 24 h, listed per entry for reference.
# test_method_notes: Cytotoxicity assay (MTT)
# run_conditions: African green monkey, Vero cell monolayers
# Procedure: Plates were incubated for 1 h, the supernatant again removed, and 200 µL dimethyl sulfoxide (DMSO) were added to each well to dissolve the formazan crystals for 10 min. Absorbance was measured at 570 nm using an ELISA reader (Thermo Plate, TP-READER, Thermo Fisher Scientific). […] The selectivity index (SI) was calculated as follows: SI (µg/mL) = CC50/MIC[17]. Three independent experiments were performed in triplicate. Controls were performed using 2% (v/v) DMSO only.
readout: CC50 at 24 h (µg/mL)

INSERT INTO results (line_notation, measured_result) VALUES
  ('CCOCNC1=CC(=O)c2ccccc2C1=O', 220),
  ('NC1=CC(=O)c2ccccc2C1=O', 97.3);

* * *

# System: MRSA ST30-SCCmecIV (USA1100)
# test_method_notes: Disk diffusion test
# Format: cell-based, Staphylococcus aureus
readout: Inhibition zone (mm)

INSERT INTO results (compound, measured_result) VALUES
  ('CCOCNC1=CC(=O)c2ccccc2C1=O', 13),
  ('NC1=CC(=O)c2ccccc2C1=O', 10),
  ('CN[C@H](CC(C)C)C(=O)N[C@H]1C(=O)N[C@@H](CC(N)=O)C(=O)N[C@H]2C(=O)N[C@H]3C(=O)N[C@H](C(=O)N[C@H](C(=O)O)c4cc(O)cc(O)c4-c4cc3ccc4O)[C@H](O)c3ccc(c(Cl)c3)Oc3cc2cc(c3O[C@@H]2O[C@H](CO)[C@@H](O)[C@H](O)[C@H]2O[C@H]2C[C@](C)(N)[C@H](O)[C@H](C)O2)Oc2ccc(cc2Cl)[C@H]1O [Vancomycin, vancomycin, reference compound]', 16),
  ('COCNC1=CC(=O)c2ccccc2C1=O', 13),
  ('C#CCOCNC1=CC(=O)c2ccccc2C1=O', 15);

* * *

# test_method_notes: Hemocompatibility assay
# run_conditions: human, pH 7.4
readout: hemolysis at 3 h

INSERT INTO results (molecule, measured_result) VALUES
  ('CN[C@H](CC(C)C)C(=O)N[C@H]1C(=O)N[C@@H](CC(N)=O)C(=O)N[C@H]2C(=O)N[C@H]3C(=O)N[C@H](C(=O)N[C@H](C(=O)O)c4cc(O)cc(O)c4-c4cc3ccc4O)[C@H](O)c3ccc(c(Cl)c3)Oc3cc2cc(c3O[C@@H]2O[C@H](CO)[C@@H](O)[C@H](O)[C@H]2O[C@H]2C[C@](C)(N)[C@H](O)[C@H](C)O2)Oc2ccc(cc2Cl)[C@H]1O [Vancomycin, vancomycin, reference compound]', '3.6%');

* * *

Recorded Inhibition zone by entry
# Tested on: MRSA ST5-SCCmecII (USA100)
# test_method_notes: Disk diffusion test
# Type: cell-based, Staphylococcus aureus
readout: Inhibition zone (mm)

INSERT INTO results (molecule, measured_result) VALUES
  ('COCNC1=CC(=O)c2ccccc2C1=O', 12),
  ('NC1=CC(=O)c2ccccc2C1=O', 9),
  ('CN[C@H](CC(C)C)C(=O)N[C@H]1C(=O)N[C@@H](CC(N)=O)C(=O)N[C@H]2C(=O)N[C@H]3C(=O)N[C@H](C(=O)N[C@H](C(=O)O)c4cc(O)cc(O)c4-c4cc3ccc4O)[C@H](O)c3ccc(c(Cl)c3)Oc3cc2cc(c3O[C@@H]2O[C@H](CO)[C@@H](O)[C@H](O)[C@H]2O[C@H]2C[C@](C)(N)[C@H](O)[C@H](C)O2)Oc2ccc(cc2Cl)[C@H]1O [Vancomycin, vancomycin, reference compound]', 16),
  ('C#CCOCNC1=CC(=O)c2ccccc2C1=O', 12),
  ('CCOCNC1=CC(=O)c2ccccc2C1=O', 13);
